Each entry below carries its recorded inhibition.
biological target: Glucose transporter (Leishmania mexicana); assay: ST_JUDE_LEISH: Cytotoxicity at 2uM final concentration against transgenic Leishmania Mexicana promastigotes LmGT2 that are glucose transport deficient and complemented with the L. Mexicana glucose transporter 2. Activity is measured by DNA content using SYBR green in vitro; format: functional
Please give the number followed by its unit.

Below, each entry is followed by its recorded inhibition result.
sampleSmiles	inhibition
CC(C)NCc1ccc(-c2cccc(CN3CCC(c4ccccc4)CC3)c2)c(C(=O)NCC2CCCCC2)c1	8.2%
COc1ccc(NC(=O)CCNc2cc(C)nc(Nc3ccccc3)n2)cc1	5.8%
Cc1c(Oc2ccc(-n3ccnc3)cc2)ncnc1N1CCC2(CC1)CNCc1ccccc12	2.5%
Cc1nc2nc(N)nc(N)c2c(C)c1Cc1cccc(C#N)c1	2.88%

Please fill in: inhibition reported for COc1ccc(OCCCN2CCCCC2)cc1S(=O)(=O)c1ccc(OCc2ccc(C(F)(F)F)cc2)cc1 = 2.1%
